System: rabbit serum obtained by immunizing a rabbit with the SARS-CoV strain Frankfurt 1
Type: binding
Set-up: unit not given here
measured-endpoint: Binding of a rabbit serum to looped peptides
Give your answer as a number; write no unit.

Consider the worked cases shown below.
>  <sequence-text>
MEAQFLYLYALIYFL

>  <numeric-result>
0.5

$$$$
>  <sequence-text>
GVAFLAVFQSATKII

>  <numeric-result>
0.6

$$$$
>  <sequence-text>
AISPKFTTSLSLHKL

>  <numeric-result>
0.4

$$$$
>  <sequence-text>
LSLHKLLQTLVLKML

>  <numeric-result>
0.5

$$$$
>  <sequence-text>
MMPTTLFAGTHITMT

>  <numeric-result>
0.6

$$$$
>  <sequence-text>
TEVYYQLESTQITTD

>  <numeric-result>
0.4

$$$$
>  <sequence-text>
MDPIYDEPTTTTSVP

>  <numeric-result>
0.3

$$$$
>  <sequence-text>
AAGMEAQFLYLYALI

>  <numeric-result>
0.6

$$$$

Turning now to a further sequence:
INPUT: Look up Binding of a rabbit serum to looped peptides for this sequence: LLQTLVLKMLHSSSL
OUTPUT: 0.4

----------
Tested on: antibodies in sera from SARS patients (sera 1a, 1b, 2, 6, 37, 62, London, SARS-yellow, SARS-green)
Assay type: binding, human
Design: unit not given here
Listing of entries alongside the reported Binding of serum 1a to looped/cyclic peptides of protein N of SARS-CoV Urbani.
Give your answer as a number; write no unit.

Consider the worked cases shown below.
>  <sequence-text>
RSAPRITFGGPTDST

>  <numeric-result>
0.3

$$$$
>  <sequence-text>
PKQRRPQGLPNNTAS

>  <numeric-result>
0.5

$$$$
>  <sequence-text>
EASLPYGANKEGIVW

>  <numeric-result>
0.3

$$$$

INPUT: Look up Binding of serum 1a to looped/cyclic peptides of protein N of SARS-CoV Urbani for this sequence: KDHIGTRNPNNNAAT
OUTPUT: 0.4

INPUT: Look up Binding of serum 1a to looped/cyclic peptides of protein N of SARS-CoV Urbani for this sequence: GGETALALLLLDRLN
OUTPUT: 0.4

INPUT: Look up Binding of serum 1a to looped/cyclic peptides of protein N of SARS-CoV Urbani for this sequence: GPQSNQRSAPRITFG
OUTPUT: 0.3

INPUT: Look up Binding of serum 1a to looped/cyclic peptides of protein N of SARS-CoV Urbani for this sequence: QGLPNNTASWFTALT
OUTPUT: 0.4

INPUT: Look up Binding of serum 1a to looped/cyclic peptides of protein N of SARS-CoV Urbani for this sequence: LLLDRLNQLESKVSG
OUTPUT: 0.3

INPUT: Look up Binding of serum 1a to looped/cyclic peptides of protein N of SARS-CoV Urbani for this sequence: MDDFSRQLQNSMSGA
OUTPUT: 0.4

INPUT: Look up Binding of serum 1a to looped/cyclic peptides of protein N of SARS-CoV Urbani for this sequence: DGKMKELSPRWYFYY
OUTPUT: 0.4

----------
Listing of entries alongside the reported Binding of antibody 03-018 to looped/cyclic peptides of the N protein of SARS-CoV Urbani.
Test system: recombinant human anti-SARS-CoV antibody 03-018
Format: binding
Parameters: unit not given here
Give your answer as a number; write no unit.

Consider the worked cases shown below.
>  <sequence-text>
GFYAEGSRGGSQASS

>  <numeric-result>
0.2

$$$$
>  <sequence-text>
QGNFGDQDLIRQGTD

>  <numeric-result>
0.2

$$$$
>  <sequence-text>
NSGPDDQIGYYRRAT

>  <numeric-result>
0.2

$$$$
>  <sequence-text>
KELSPRWYFYYLGTG

>  <numeric-result>
0.3

$$$$
>  <sequence-text>
TRRVRGGDGKMKELS

>  <numeric-result>
0.2

$$$$

INPUT: Look up Binding of antibody 03-018 to looped/cyclic peptides of the N protein of SARS-CoV Urbani for this sequence: SRGNSRNSTPGSSRG
OUTPUT: 0.2

INPUT: Look up Binding of antibody 03-018 to looped/cyclic peptides of the N protein of SARS-CoV Urbani for this sequence: TRNPNNNAATVLQLP
OUTPUT: 0.2

INPUT: Look up Binding of antibody 03-018 to looped/cyclic peptides of the N protein of SARS-CoV Urbani for this sequence: MDDFSRQLQNSMSGA
OUTPUT: 0.2

INPUT: Look up Binding of antibody 03-018 to looped/cyclic peptides of the N protein of SARS-CoV Urbani for this sequence: LLDRLNQLESKVSGK
OUTPUT: 0.2

INPUT: Look up Binding of antibody 03-018 to looped/cyclic peptides of the N protein of SARS-CoV Urbani for this sequence: QTVTKKSAAEASKKP
OUTPUT: 0.2

INPUT: Look up Binding of antibody 03-018 to looped/cyclic peptides of the N protein of SARS-CoV Urbani for this sequence: SAFFGMSRIGMEVTP
OUTPUT: 0.2

INPUT: Look up Binding of antibody 03-018 to looped/cyclic peptides of the N protein of SARS-CoV Urbani for this sequence: PRGQGVPINTNSGPD
OUTPUT: 0.2

INPUT: Look up Binding of antibody 03-018 to looped/cyclic peptides of the N protein of SARS-CoV Urbani for this sequence: PTEPKKDKKKKTDEA
OUTPUT: 0.2

INPUT: Look up Binding of antibody 03-018 to looped/cyclic peptides of the N protein of SARS-CoV Urbani for this sequence: LPNNTASWFTALTQH
OUTPUT: 0.3

INPUT: Look up Binding of antibody 03-018 to looped/cyclic peptides of the N protein of SARS-CoV Urbani for this sequence: QLQNSMSGASADSTQ
OUTPUT: 0.2

INPUT: Look up Binding of antibody 03-018 to looped/cyclic peptides of the N protein of SARS-CoV Urbani for this sequence: LPAADMDDFSRQLQN
OUTPUT: 0.2

INPUT: Look up Binding of antibody 03-018 to looped/cyclic peptides of the N protein of SARS-CoV Urbani for this sequence: GDGKMKELSPRWYFY
OUTPUT: 0.2

----------
System: antibodies in sera from SARS patients (sera 1a, 1b, 2, 6, 37, 62, London, SARS-yellow, SARS-green)
Format: binding, human
measured-endpoint: Binding of serum SARS-yellow to looped/cyclic peptide (PEPSCAN-ELISA)
Give your answer as a number; write no unit.

Consider the worked cases shown below.
>  <sequence-text>
CKSKNPLLYDANYFV

>  <numeric-result>
0.5

$$$$
>  <sequence-text>
CWLCWKCKSKNPLLY

>  <numeric-result>
0.5

$$$$
>  <sequence-text>
ALNKRWQLALYKGFQ

>  <numeric-result>
0.6

$$$$
>  <sequence-text>
KIIALNKRWQLALYK

>  <numeric-result>
0.5

$$$$
>  <sequence-text>
AVFQSATKIIALNKR

>  <numeric-result>
0.4

$$$$
>  <sequence-text>
LLLFVTIYSHLLLVA

>  <numeric-result>
0.4

$$$$
>  <sequence-text>
VAAGMEAQFLYLYAL

>  <numeric-result>
0.5

$$$$
>  <sequence-text>
NLLLLFVTIYSHLLL

>  <numeric-result>
0.4

$$$$

INPUT: Look up Binding of serum SARS-yellow to looped/cyclic peptide (PEPSCAN-ELISA) for this sequence: MEAQFLYLYALIYFL
OUTPUT: 0.4

INPUT: Look up Binding of serum SARS-yellow to looped/cyclic peptide (PEPSCAN-ELISA) for this sequence: LLVAAGMEAQFLYLY
OUTPUT: 0.5

INPUT: Look up Binding of serum SARS-yellow to looped/cyclic peptide (PEPSCAN-ELISA) for this sequence: YFLQCINACRIIMRC
OUTPUT: 0.6

INPUT: Look up Binding of serum SARS-yellow to looped/cyclic peptide (PEPSCAN-ELISA) for this sequence: INACRIIMRCWLCWK
OUTPUT: 0.5

INPUT: Look up Binding of serum SARS-yellow to looped/cyclic peptide (PEPSCAN-ELISA) for this sequence: ATKIIALNKRWQLAL
OUTPUT: 0.6

INPUT: Look up Binding of serum SARS-yellow to looped/cyclic peptide (PEPSCAN-ELISA) for this sequence: FGWLVIGVAFLAVFQ
OUTPUT: 0.6

INPUT: Look up Binding of serum SARS-yellow to looped/cyclic peptide (PEPSCAN-ELISA) for this sequence: LFVTIYSHLLLVAAG
OUTPUT: 0.4

INPUT: Look up Binding of serum SARS-yellow to looped/cyclic peptide (PEPSCAN-ELISA) for this sequence: ALYKGFQFICNLLLL
OUTPUT: 0.4

INPUT: Look up Binding of serum SARS-yellow to looped/cyclic peptide (PEPSCAN-ELISA) for this sequence: CINACRIIMRCWLCW
OUTPUT: 0.5

The values you see were collected from patent US20070128217A1.
